Quick list: NO release per entry.
Assay: Induction of NO release per mol of compound in phosphate buffer at pH 7.4 at 100 uM after 2 hrs by Griess assay
Assay type: physicochemical
Conditions: pH 7.4, 2 h
REPORTED METRIC: NO release (mol/mol)

{"COMPOUND": "COc1ccc(C2=NN(C(=O)C(C)O[N+](=O)[O-])C(c3c(Cl)cccc3Cl)C2)cc1OC (centres undefined)", "UNIT NAME": "mol/mol", "RESULT NUMBER": 0.19}
{"COMPOUND": "COc1ccc(C2=NN(C(=O)C(C)O[N+](=O)[O-])C(c3ccco3)C2)cc1OC (centres undefined)", "UNIT NAME": "mol/mol", "RESULT NUMBER": 0.19}
{"COMPOUND": "COc1ccc(C2=NN(C(=O)CNc3ccc(/C(C)=N/O)cc3)C(c3ccco3)C2)cc1OC (centres undefined)", "UNIT NAME": "mol/mol", "RESULT NUMBER": 0.128}
{"COMPOUND": "COc1ccc(C2=NN(C(=O)CO[N+](=O)[O-])C(c3c(Cl)cccc3Cl)C2)cc1OC (centres undefined)", "UNIT NAME": "mol/mol", "RESULT NUMBER": 0.395}

---

System: Rattus norvegicus
Assay: Antiinflammatory activity in albino rat assessed as inhibition of carrageenan-induced paw edema at 100 mg/kg, po treated for 30 mins measured after 3 hrs of carrageenan challenge
Type: functional
REPORTED METRIC: inhibition in vivo at 100 mg/kg (%)

{"MOLECULE": "COc1ccc(C2=NNC(c3ccco3)C2)cc1OC (stereo not given)", "TGT": "Rattus norvegicus", "UNIT NAME": "%", "RESULT NUMBER": 60}
{"MOLECULE": "COc1ccc(C2CC(c3ccc(OC)c(OC)c3)=NN2C(=O)C(C)O[N+](=O)[O-])c(OC)c1 (stereo not given)", "TGT": "Rattus norvegicus", "UNIT NAME": "%", "RESULT NUMBER": 56}
{"MOLECULE": "COc1ccc(C2CC(c3ccc(OC)c(OC)c3)=NN2)c(OC)c1 (stereo not given)", "TGT": "Rattus norvegicus", "UNIT NAME": "%", "RESULT NUMBER": 42}
{"MOLECULE": "COc1ccc(C2=NNC(c3c(Cl)cccc3Cl)C2)cc1 (stereo not given)", "TGT": "Rattus norvegicus", "UNIT NAME": "%", "RESULT NUMBER": 60}
{"MOLECULE": "COc1ccc(C2=NN(C(=O)C(C)Br)C(c3c(Cl)cccc3Cl)C2)cc1OC (stereo not given)", "TGT": "Rattus norvegicus", "UNIT NAME": "%", "RESULT NUMBER": 60}
{"MOLECULE": "COc1ccc(C2CC(c3ccc(OC)c(OC)c3)=NN2C(=O)CO[N+](=O)[O-])c(OC)c1 (stereo not given)", "TGT": "Rattus norvegicus", "UNIT NAME": "%", "RESULT NUMBER": 58}
{"MOLECULE": "COc1ccc(C2=NNC(c3c(Cl)cccc3Cl)C2)cc1OC (stereo not given)", "TGT": "Rattus norvegicus", "UNIT NAME": "%", "RESULT NUMBER": 58}
{"MOLECULE": "COc1ccc(C2=NN(C(=O)C(C)O[N+](=O)[O-])C(c3c(Cl)cccc3Cl)C2)cc1OC (stereo not given)", "TGT": "Rattus norvegicus", "UNIT NAME": "%", "RESULT NUMBER": 55}
{"MOLECULE": "COc1ccc(C2=NN(C(=O)CO[N+](=O)[O-])C(c3c(Cl)cccc3Cl)C2)cc1 (stereo not given)", "TGT": "Rattus norvegicus", "UNIT NAME": "%", "RESULT NUMBER": 52}
{"MOLECULE": "COc1ccc(C2CC(c3ccc(OC)c(OC)c3)=NN2C(=O)CBr)c(OC)c1 (stereo not given)", "TGT": "Rattus norvegicus", "UNIT NAME": "%", "RESULT NUMBER": 71}

---

Assay: Induction of NO release per mol of compound in phosphate buffer at pH 7.4 at 100 uM after 2 hrs by Griess assay
Type: physicochemical
Conditions: pH 7.4, 2 h

{"COMPOUND": "COc1ccc(C2=NN(C(=O)CO[N+](=O)[O-])C(c3c(Cl)cccc3Cl)C2)cc1 (stereo not given)", "NO release [mol/mol]": 0.295}
{"COMPOUND": "COc1ccc(C2CC(c3ccc(OC)c(OC)c3)=NN2C(=O)C(C)O[N+](=O)[O-])c(OC)c1 (stereo not given)", "NO release [mol/mol]": 0.16}
{"COMPOUND": "COc1ccc(C2CC(c3ccc(OC)c(OC)c3)=NN2C(=O)CO[N+](=O)[O-])c(OC)c1 (stereo not given)", "NO release [mol/mol]": 0.391}
{"COMPOUND": "COc1ccc(C2=NN(C(=O)CO[N+](=O)[O-])C(c3ccco3)C2)cc1OC (stereo not given)", "NO release [mol/mol]": 0.211}
{"COMPOUND": "COc1ccc(C2CC(c3ccc(OC)c(OC)c3)=NN2C(=O)CNc2ccc(/C(C)=N/O)cc2)c(OC)c1 (stereo not given)", "NO release [mol/mol]": 0.114}

---

Reported NO release values for a set of molecules
Assay: Induction of NO release per mol of compound in phosphate buffer at pH 7.4 at 100 uM after 3 hrs by Griess assay
Assay type: physicochemical
Conditions: pH 7.4, 3 h
REPORTED METRIC: NO release (mol/mol)

{"MOLECULE": "COc1ccc(C2CC(c3ccc(OC)c(OC)c3)=NN2C(=O)C(C)O[N+](=O)[O-])c(OC)c1 (centres undefined)", "RESULT NUMBER": 0.438}
{"MOLECULE": "COc1ccc(C2=NN(C(=O)CO[N+](=O)[O-])C(c3c(Cl)cccc3Cl)C2)cc1OC (centres undefined)", "RESULT NUMBER": 0.516}
{"MOLECULE": "COc1ccc(C2=NN(C(=O)C(C)O[N+](=O)[O-])C(c3ccco3)C2)cc1OC (centres undefined)", "RESULT NUMBER": 0.398}
{"MOLECULE": "COc1ccc(C2CC(c3ccc(OC)c(OC)c3)=NN2C(=O)CNc2ccc(/C(C)=N/O)cc2)c(OC)c1 (centres undefined)", "RESULT NUMBER": 0.148}
{"MOLECULE": "COc1ccc(C2=NN(C(=O)CNc3ccc(/C(C)=N/O)cc3)C(c3ccco3)C2)cc1OC (centres undefined)", "RESULT NUMBER": 0.138}
{"MOLECULE": "COc1ccc(C2=NN(C(=O)CO[N+](=O)[O-])C(c3c(Cl)cccc3Cl)C2)cc1 (centres undefined)", "RESULT NUMBER": 0.356}
{"MOLECULE": "COc1ccc(C2=NN(C(=O)CO[N+](=O)[O-])C(c3ccco3)C2)cc1OC (centres undefined)", "RESULT NUMBER": 0.281}
{"MOLECULE": "COc1ccc(C2CC(c3ccc(OC)c(OC)c3)=NN2C(=O)CO[N+](=O)[O-])c(OC)c1 (centres undefined)", "RESULT NUMBER": 0.433}
{"MOLECULE": "COc1ccc(C2=NN(C(=O)C(C)O[N+](=O)[O-])C(c3c(Cl)cccc3Cl)C2)cc1OC (centres undefined)", "RESULT NUMBER": 0.501}

---

System: Rattus norvegicus
Assay: Gastrotoxicity in albino rat assessed as ulcer index at 100 mg/kg, po after 5 hrs
Type: toxicity, organism-based
Design: dose 100 mg/kg, route oral
Conditions: in vivo
UI reference

{"COMPOUND": "COc1ccc(C2CC(c3ccc(OC)c(OC)c3)=NN2C(=O)CNc2ccc(/C(C)=N/O)cc2)c(OC)c1 (stereo not given)", "TGT": "Rattus norvegicus", "UI": 2}
{"COMPOUND": "COc1ccc(C2=NN(C(=O)CO[N+](=O)[O-])C(c3ccco3)C2)cc1OC (stereo not given)", "TGT": "Rattus norvegicus", "UI": 2}
{"COMPOUND": "COc1ccc(C2=NN(C(=O)CBr)C(c3ccco3)C2)cc1OC (stereo not given)", "TGT": "Rattus norvegicus", "UI": 13}
{"COMPOUND": "COc1ccc(C2CC(c3ccc(OC)c(OC)c3)=NN2C(=O)C(C)O[N+](=O)[O-])c(OC)c1 (stereo not given)", "TGT": "Rattus norvegicus", "UI": 3}
{"COMPOUND": "COc1ccc(C2=NNC(c3c(Cl)cccc3Cl)C2)cc1 (stereo not given)", "TGT": "Rattus norvegicus", "UI": 31}
{"COMPOUND": "COc1ccc(C2=NN(C(=O)CO[N+](=O)[O-])C(c3c(Cl)cccc3Cl)C2)cc1 (stereo not given)", "TGT": "Rattus norvegicus", "UI": 0}
{"COMPOUND": "COc1ccc(C2=NN(C(=O)C(C)Br)C(c3ccco3)C2)cc1OC (stereo not given)", "TGT": "Rattus norvegicus", "UI": 10}
{"COMPOUND": "COc1ccc(C2CC(c3ccc(OC)c(OC)c3)=NN2C(=O)CO[N+](=O)[O-])c(OC)c1 (stereo not given)", "TGT": "Rattus norvegicus", "UI": 5}
{"COMPOUND": "COc1ccc(C2=NN(C(=O)CBr)C(c3c(Cl)cccc3Cl)C2)cc1OC (stereo not given)", "TGT": "Rattus norvegicus", "UI": 3}
{"COMPOUND": "COc1ccc(C2=NN(C(=O)C(C)Br)C(c3c(Cl)cccc3Cl)C2)cc1OC (stereo not given)", "TGT": "Rattus norvegicus", "UI": 10}
{"COMPOUND": "COc1ccc(C2=NN(C(=O)C(C)O[N+](=O)[O-])C(c3c(Cl)cccc3Cl)C2)cc1OC (stereo not given)", "TGT": "Rattus norvegicus", "UI": 7}
{"COMPOUND": "COc1ccc(C2CC(c3ccc(OC)c(OC)c3)=NN2)c(OC)c1 (stereo not given)", "TGT": "Rattus norvegicus", "UI": 7}
{"COMPOUND": "COc1ccc(C2=NN(C(=O)CNc3ccc(/C(C)=N/O)cc3)C(c3ccco3)C2)cc1OC (stereo not given)", "TGT": "Rattus norvegicus", "UI": 0}
{"COMPOUND": "COc1ccc(C2=NN(C(=O)CO[N+](=O)[O-])C(c3c(Cl)cccc3Cl)C2)cc1OC (stereo not given)", "TGT": "Rattus norvegicus", "UI": 4}
{"COMPOUND": "COc1ccc(C2=NN(C(=O)C(C)O[N+](=O)[O-])C(c3ccco3)C2)cc1OC (stereo not given)", "TGT": "Rattus norvegicus", "UI": 7}
